Would you mind telling me the reported pKd of each entry?
Molecular target: human TGFßRII (antigen of the Octet experiments) (human, UniProt P37173 23-166)
Sequence (P37173 23-166): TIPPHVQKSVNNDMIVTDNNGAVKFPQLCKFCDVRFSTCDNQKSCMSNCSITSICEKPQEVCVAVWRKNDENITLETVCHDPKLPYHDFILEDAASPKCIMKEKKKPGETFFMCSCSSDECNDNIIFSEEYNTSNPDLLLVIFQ
Experiment: BLI (Octet)
Lab note: report pKd as minus log10 of the concentration in molar units, number only.

Qu. In one line, give reported pKd of the entry H1.45 L1 XENP34501 (antibody, V domains shown) VH: QLQVQESGPGLVKPSETLSLTCTVSGGSISNSYFSWGWIRQPPGKGLEWIGYFYYGEKTYYNPSLKSRATISIDTSKSQFSLKLSSVTAADTAVYYCPRGPTMIRGVIDSWGQGTLVTVSS VL: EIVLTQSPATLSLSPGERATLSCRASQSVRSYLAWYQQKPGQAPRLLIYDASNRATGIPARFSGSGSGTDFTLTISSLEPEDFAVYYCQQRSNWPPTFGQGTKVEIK .
Ans. 9.00

Qu. In one line, give reported pKd of the entry H1.42 L1 XENP34498 (antibody, V domains shown) VH: QLQVQESGPGLVKPSETLSLTCTVSGGSISNSYFSWGWIRQPPGKGLEWIGNFYYGEKTYYNPSLKSRATISIDTSKSQFSLKLSSVTAADTAVYYCPRGPTMIRGVIDSWGQGTLVTVSS VL: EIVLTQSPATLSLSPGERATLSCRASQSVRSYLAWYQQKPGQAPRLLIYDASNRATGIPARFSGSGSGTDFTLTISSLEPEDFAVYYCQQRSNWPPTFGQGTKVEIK .
Ans. 8.59

Qu. In one line, give reported pKd of the entry H1.76 L1 XENP34532 (antibody, V domains shown) VH: QLQVQESGPGLVKPSETLSLTCTVSGGSISNSYFSWGWIRQPPGKGLEWIGSFYYGEKTYYNPSLKSRATISIDTSKSQFSLKLSSVTAEDTAVYYCPRGPTMIRGVIDSWGQGTLVTVSS VL: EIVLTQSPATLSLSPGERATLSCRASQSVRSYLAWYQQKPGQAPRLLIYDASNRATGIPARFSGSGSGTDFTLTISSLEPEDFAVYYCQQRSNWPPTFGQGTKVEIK .
Ans. 9.08

Qu. In one line, give reported pKd of the entry H1.47 L1 XENP34503 (antibody, V domains shown) VH: QLQVQESGPGLVKPSETLSLTCTVSGGSISNSYFSWGWIRQPPGKGLEWIGSVYYGEKTYYNPSLKSRATISIDTSKSQFSLKLSSVTAADTAVYYCPRGPTMIRGVIDSWGQGTLVTVSS VL: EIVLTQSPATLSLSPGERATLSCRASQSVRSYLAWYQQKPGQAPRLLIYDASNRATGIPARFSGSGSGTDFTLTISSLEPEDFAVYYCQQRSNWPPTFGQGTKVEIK .
Ans. 9.17

Qu. In one line, give reported pKd of the entry H1.63 L1 XENP34519 (antibody, V domains shown) VH: QLQVQESGPGLVKPSETLSLTCTVSGGSISNSYFSWGWIRQPPGKGLEWIGSFYYGEKTHYNPSLKSRATISIDTSKSQFSLKLSSVTAADTAVYYCPRGPTMIRGVIDSWGQGTLVTVSS VL: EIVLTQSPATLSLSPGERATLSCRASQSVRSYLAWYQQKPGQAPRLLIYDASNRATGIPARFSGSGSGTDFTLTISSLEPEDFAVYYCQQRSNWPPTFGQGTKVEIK .
Ans. 8.28
